# assay.system: CYP2C9 (Homo sapiens (Human), UniProt P11712)
# Sequence (P11712 whole entry): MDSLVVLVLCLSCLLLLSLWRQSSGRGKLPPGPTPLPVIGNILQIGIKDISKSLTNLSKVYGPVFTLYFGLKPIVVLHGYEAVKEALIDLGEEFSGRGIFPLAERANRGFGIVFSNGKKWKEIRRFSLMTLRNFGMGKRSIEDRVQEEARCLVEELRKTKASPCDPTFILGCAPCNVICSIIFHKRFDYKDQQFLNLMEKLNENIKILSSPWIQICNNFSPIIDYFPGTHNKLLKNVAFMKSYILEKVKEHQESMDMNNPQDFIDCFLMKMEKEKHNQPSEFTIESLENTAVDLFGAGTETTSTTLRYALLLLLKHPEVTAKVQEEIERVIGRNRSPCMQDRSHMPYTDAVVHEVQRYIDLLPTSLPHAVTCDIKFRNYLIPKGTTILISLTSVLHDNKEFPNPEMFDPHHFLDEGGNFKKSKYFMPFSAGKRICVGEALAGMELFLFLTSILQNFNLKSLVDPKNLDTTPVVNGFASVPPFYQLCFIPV
# test.parameters: pH 8
We begin with a simple list: items and their reported IC50.
measurement.type: IC50 (µM)

compound="C[C@@H](c1ccc(OC(F)F)cc1)N1CC[C@](CCO)(c2ccc(F)cc2)OC1=O [Comparator Compound 14, reference compound]" obs_value=24.6
compound="C[C@@H](c1ccc(Br)cc1)N1CC[C@](CC(C)(C)O)(c2ccccc2)OC1=O [Comparator Compound 15, reference compound]" obs_value=9.5
compound=C[C@@H](c1ccc(-c2ccc(=O)n(C)n2)cc1)N1CC[C@](CCCO)(c2ccc(F)cc2)OC1=O obs_value=14.2

---

# assay.system: human recombinant cytochrome P450 2C19 (Homo sapiens (Human), UniProt P33261)
# Sequence (P33261 whole entry): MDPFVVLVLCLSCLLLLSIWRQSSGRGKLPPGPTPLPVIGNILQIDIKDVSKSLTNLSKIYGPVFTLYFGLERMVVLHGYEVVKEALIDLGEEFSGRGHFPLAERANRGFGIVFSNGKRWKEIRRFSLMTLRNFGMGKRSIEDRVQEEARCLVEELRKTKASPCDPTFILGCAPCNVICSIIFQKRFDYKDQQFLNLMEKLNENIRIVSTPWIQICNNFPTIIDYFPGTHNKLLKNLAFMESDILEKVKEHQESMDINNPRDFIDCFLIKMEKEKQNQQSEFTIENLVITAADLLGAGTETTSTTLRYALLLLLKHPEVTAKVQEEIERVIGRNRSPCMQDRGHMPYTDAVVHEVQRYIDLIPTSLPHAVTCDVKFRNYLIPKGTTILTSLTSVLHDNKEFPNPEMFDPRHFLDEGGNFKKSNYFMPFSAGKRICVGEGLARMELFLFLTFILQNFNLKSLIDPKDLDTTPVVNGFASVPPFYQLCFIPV
# assay.remarks: Biological Test Example 8: CYP2C19 Inhibition
# test.parameters: read-out: Biological Test Example 8 CYP2C19, IC50
pIC50: −log10 of the molar value.
measurement.type: pIC50

molecule=Cc1cc(=O)n(C)nc1-c1ccc([C@H](C)N2CC[C@](CC(C)(C)O)(c3ccccc3)OC2=O)cc1 measurement_type=pIC50 reading_qualifier=< obs_value=4.30
molecule=Cc1cc(-c2ccc([C@H](C)N3CC[C@](CC(C)(C)O)(c4ccccc4)OC3=O)cc2)nn(C)c1=O measurement_type=pIC50 reading_qualifier=< obs_value=4.30
molecule="C[C@@H](c1ccc(Br)cc1)N1CC[C@](CC(C)(C)O)(c2ccc(F)cc2)OC1=O [Comparator Compound 13, reference compound]" measurement_type=pIC50 reading_qualifier=> obs_value=6.40
molecule="C[C@@H](c1ccc(-c2ccc(F)cc2F)cc1)N1CC[C@](CC(C)(C)O)(c2ccc(F)cc2)OC1=O [Comparator Compound 6, reference compound]" measurement_type=pIC50 reading_qualifier== obs_value=5.07
molecule=C[C@@H](c1ccc(-c2ccc(=O)n(C3CC3)n2)cc1)N1CC[C@](CC(C)(C)O)(c2ccccc2)OC1=O measurement_type=pIC50 reading_qualifier== obs_value=4.88

---

# assay.system: human recombinant cytochrome P450 2C9 (Homo sapiens (Human), UniProt P11712)
# Sequence (P11712 whole entry): as the sequence (P11712 whole entry) above
# assay.remarks: Biological Test Example 7: CYP2C9 Inhibition (Naproxen O-demethylation)
# test.parameters: read-out: Biological Test Example 7 CYP2C9, IC50; [O-methyl-14C]-Naproxen substrate
pIC50: −log10 of the molar value.
measurement.type: pIC50

compound=Cc1cc(-c2ccc([C@H](C)N3CC[C@](CC(C)(C)O)(c4ccccc4)OC3=O)cc2)nn(C)c1=O measurement_type=pIC50 reading_qualifier=< obs_value=4.30
compound="C[C@@H](c1ccc(Br)cc1)N1CC[C@](CC(C)(C)O)(c2ccc(F)cc2)OC1=O [Comparator Compound 13, reference compound]" measurement_type=pIC50 reading_qualifier== obs_value=5.25
compound=C[C@@H](c1ccc(-c2ccc(=O)n(C3CC3)n2)cc1)N1CC[C@](CC(C)(C)O)(c2ccccc2)OC1=O measurement_type=pIC50 reading_qualifier== obs_value=4.54
compound="C[C@@H](c1ccc(-c2ccc(F)cc2F)cc1)N1CC[C@](CC(C)(C)O)(c2ccc(F)cc2)OC1=O [Comparator Compound 6, reference compound]" measurement_type=pIC50 reading_qualifier== obs_value=5.64
compound=Cc1cc(=O)n(C)nc1-c1ccc([C@H](C)N2CC[C@](CC(C)(C)O)(c3ccccc3)OC2=O)cc1 measurement_type=pIC50 reading_qualifier=< obs_value=4.30

---

Values of IC50 reported for human recombinant cytochrome P450 2C9 (Homo sapiens (Human), UniProt P11712) appear below.
measurement.type: IC50 (µM)

molecule="CCn1nc(-c2ccc([C@H](C)N3CC[C@](CC(C)(C)O)(c4ccccc4)OC3=O)cc2)ccc1=O [Example 14]" assay_system="human recombinant cytochrome P450 2C9 (Homo sapiens (Human), UniProt P11712)" reading_qualifier=> obs_value=50
molecule="C[C@@H](c1ccc(-c2ccc(=O)n(C)n2)cc1)N1CC[C@](CC(C)(C)O)(c2ccc(F)cc2)OC1=O [Example 13]" assay_system="human recombinant cytochrome P450 2C9 (Homo sapiens (Human), UniProt P11712)" reading_qualifier=> obs_value=50
molecule="C[C@@H](c1ccc(Br)cc1)N1CC[C@](CC(C)(C)O)(c2ccccc2)OC1=O [Comparator Compound 15, reference compound]" assay_system="human recombinant cytochrome P450 2C9 (Homo sapiens (Human), UniProt P11712)" reading_qualifier== obs_value=7.7
molecule="C[C@@H](c1ccc(OC(F)F)cc1)N1CC[C@](CCO)(c2ccc(F)cc2)OC1=O [Comparator Compound 14, reference compound]" assay_system="human recombinant cytochrome P450 2C9 (Homo sapiens (Human), UniProt P11712)" reading_qualifier== obs_value=25.9
molecule="C[C@@H](c1ccc(-c2ccc(=O)n(CC(F)(F)F)n2)cc1)N1CC[C@](CC(C)(C)O)(c2ccccc2)OC1=O [Example 16]" assay_system="human recombinant cytochrome P450 2C9 (Homo sapiens (Human), UniProt P11712)" reading_qualifier== obs_value=13

---

# assay.system: CYP2C9 (Homo sapiens (Human), UniProt P11712)
# assay.remarks: Biological Test Example 9: CYP2C9 Inhibition (Invitrogen kit, OOMR fluorogenic substrate)
# test.parameters: read-out: Biological Test Example 9 CYP2C9 IC50
We begin with a simple list: items and their reported IC50.
measurement.type: IC50

molecule=O=C1O[C@@](CCO)(c2ccccc2)CCN1c1cccc(-c2ccc(F)cc2)n1 measurement_type=IC50 obs_value="5.1 µM"
molecule=O=C1O[C@@](CCO)(c2ccccc2)CCN1c1cccc(-c2ccc(F)cc2F)c1 measurement_type=IC50 obs_value="27 µM"
molecule="C[C@@H](c1ccc(Br)cc1)N1CC[C@](CC(C)(C)O)(c2ccc(F)cc2)OC1=O [Comparator Compound 13, reference compound]" measurement_type=IC50 obs_value="7.3 µM"
molecule="O=C1OC(CCO)(c2ccccc2F)CCN1c1cccc(-c2ccc(F)cc2F)n1 (centres unmarked)" measurement_type=IC50 obs_value="1.4 µM"
molecule="C[C@@H](c1ccc(-c2ccc(F)cc2F)cc1)N1CC[C@](CC(C)(C)O)(c2ccc(F)cc2)OC1=O [Comparator Compound 6, reference compound]" measurement_type=IC50 obs_value="5 µM"

---

Values of IC50 reported for human recombinant cytochrome P450 2C19 (Homo sapiens (Human)) appear below.
measurement.type: IC50

molecule=C[C@@H](c1ccc(-c2ccc(=O)n(CC3CC3)n2)cc1)N1CC[C@](CC(C)(C)O)(c2ccccc2)OC1=O obs_value="5.4 µM"
molecule="C[C@@H](c1ccc(Br)cc1)N1CC[C@](CC(C)(C)O)(c2ccccc2)OC1=O [Comparator Compound 15, reference compound]" obs_value="< 0.4 µM"
molecule=C[C@@H](c1ccc(-c2ccc(=O)n(C)n2)cc1)N1CC[C@](CC(C)(C)O)(c2ccc(F)cc2)OC1=O obs_value="> 50 µM"
molecule="C[C@@H](c1ccc(OC(F)F)cc1)N1CC[C@](CCO)(c2ccc(F)cc2)OC1=O [Comparator Compound 14, reference compound]" obs_value="6.4 µM"
molecule=C[C@@H](c1ccc(-c2ccc(=O)n(CC(F)(F)F)n2)cc1)N1CC[C@](CC(C)(C)O)(c2ccccc2)OC1=O obs_value="18.9 µM"
molecule=CCn1nc(-c2ccc([C@H](C)N3CC[C@](CC(C)(C)O)(c4ccccc4)OC3=O)cc2)ccc1=O obs_value="46.3 µM"

---

We begin with a simple list: items and their reported IC50.
# assay.system: human recombinant cytochrome P450 3A4 (Homo sapiens (Human))
# Sequence (P08684 whole entry): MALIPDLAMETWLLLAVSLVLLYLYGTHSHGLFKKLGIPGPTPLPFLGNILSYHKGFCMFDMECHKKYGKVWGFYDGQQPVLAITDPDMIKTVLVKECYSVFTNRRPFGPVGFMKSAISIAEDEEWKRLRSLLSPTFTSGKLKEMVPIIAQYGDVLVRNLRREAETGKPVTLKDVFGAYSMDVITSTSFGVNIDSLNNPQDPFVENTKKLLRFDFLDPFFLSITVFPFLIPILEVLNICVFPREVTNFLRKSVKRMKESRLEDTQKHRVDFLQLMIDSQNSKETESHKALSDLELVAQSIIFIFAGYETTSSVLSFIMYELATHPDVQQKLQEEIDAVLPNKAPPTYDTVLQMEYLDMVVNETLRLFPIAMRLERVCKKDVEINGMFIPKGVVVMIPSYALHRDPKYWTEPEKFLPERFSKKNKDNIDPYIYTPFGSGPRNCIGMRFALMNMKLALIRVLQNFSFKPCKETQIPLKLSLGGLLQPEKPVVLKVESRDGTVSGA
# assay.remarks: Biological Test Example 6: CYP3A4 Inhibition
# Format: in vitro ADME
# test.parameters: human
measurement.type: IC50 (µM)

chemical_smiles=Cc1cc(=O)n(C)nc1-c1ccc([C@H](C)N2CC[C@](CC(C)(C)O)(c3ccccc3)OC2=O)cc1 assay_system="human recombinant cytochrome P450 3A4 (Homo sapiens (Human))" reading_qualifier=> obs_value=50
chemical_smiles=CCn1nc(-c2ccc([C@H](C)N3CC[C@](CC(C)(C)O)(c4ccccc4)OC3=O)cc2)ccc1=O assay_system="human recombinant cytochrome P450 3A4 (Homo sapiens (Human))" reading_qualifier== obs_value=32.7
chemical_smiles=C[C@@H](c1ccc(-c2ccc(=O)n(CC3CC3)n2)cc1)N1CC[C@](CC(C)(C)O)(c2ccccc2)OC1=O assay_system="human recombinant cytochrome P450 3A4 (Homo sapiens (Human))" reading_qualifier== obs_value=5.7

---

# assay.remarks: Biological Test Example 5: Fraction Unbound in Human Plasma (equilibrium dialysis)
# Assay type: in vitro ADME
measurement.type: fraction unbound

compound="C[C@@H](c1ccc(-c2ccc(=O)n(C)n2)cc1)N1CC[C@](CC(C)(C)O)(c2ccccc2)OC1=O [Example 12]" measurement_type="fraction unbound" obs_value=0.022
compound="C[C@@H](c1ccc(-c2ccc(F)cc2)cc1)N1CC[C@](CC(C)(C)O)(c2ccccc2)OC1=O [Comparator Compound 12, reference compound]" measurement_type="fraction unbound" obs_value=0.004
compound="C[C@@H](c1ccc(-c2ccc(F)cc2)cc1)N1CC[C@](CCC(N)=O)(c2ccccc2)OC1=O [Comparator Compound 11, reference compound]" measurement_type="fraction unbound" obs_value=0.007
